test system: C. albicans; details: in vitro
Numbered stars: 1 amine (or outer) side, 2 acyl side, 3 side chain; on linkers, the order of the positions; unused ones are H or OH. Bridge positions count the residues as written; N and C are the ends. Square brackets hold non-standard residues; d marks the D form. Peptide text beside a SMILES is read from it. * marks the point of attachment. ξ: configuration not given here. pTerphenylCO(4''-OnC5H11) = CCCCCOc1ccc(-c2ccc(-c3ccc(C(=O)*)cc3)cc2)cc1; Pro(3S-OH,4S-Me) = C[C@H]1CN[C@H](C(=O)O)[C@H]1O; hTyr(3R-OH) = N[C@H](C(=O)O)[C@H](O)Cc1ccc(O)cc1; X1 = CN1CCC(NC[C@H](N[*:1])C(=O)[*:2])CC1; Hyp = O=C(O)[C@@H]1C[C@@H](O)CN1; Thr(3ξ) = CC(O)[C@H](N)C(=O)O; Dap = NC[C@H](N)C(=O)O
Field: Minimal Inhibitory Concentration MIC C. albicans. Provide a value for each of the compounds that follow.
Numbers only here, please. The scale is µg/mL.

Minimal Inhibitory Concentration MIC C. albicans recorded for this compound, CCCCCOc1ccc(-c2ccc(-c3ccc(C(=O)N[C@H]4CNC(=O)[C@H](CNC5CCN(C)CC5)NC(=O)[C@@H]5[C@@H](O)[C@@H](C)CN5C(=O)[C@H](C(C)O)NC(=O)[C@H]([C@H](O)Cc5ccc(O)cc5)NC(=O)[C@@H]5C[C@@H](O)CN5C(=O)[C@H](C(C)O)NC4=O)cc3)cc2)cc1 (stereo partly drawn) [Compound E8-9] ({pTerphenylCO(4''-OnC5H11)}-[Dap][Thr(3ξ)][Hyp][hTyr(3R-OH)][Thr(3ξ)][Pro(3S-OH,4S-Me)][X1]; lactam 1-C) , is 0.156

Minimal Inhibitory Concentration MIC C. albicans recorded for this compound, CCCCCOc1ccc(-c2ccc(-c3ccc(C(=O)N[C@H]4CCNNC(=O)[C@@H]5[C@@H](O)[C@@H](C)CN5C(=O)[C@H](C(C)O)NC(=O)[C@H]([C@H](O)Cc5ccc(O)cc5)NC(=O)[C@@H]5C[C@@H](O)CN5C(=O)[C@H](C(C)O)NC4=O)cc3)cc2)cc1 (some centres unmarked) [E2-10(b)] , is 0.01
